Target: Toll-like receptor 1/2 (Homo sapiens, UniProt O60603+Q15399)
Sequence (O60603 whole entry): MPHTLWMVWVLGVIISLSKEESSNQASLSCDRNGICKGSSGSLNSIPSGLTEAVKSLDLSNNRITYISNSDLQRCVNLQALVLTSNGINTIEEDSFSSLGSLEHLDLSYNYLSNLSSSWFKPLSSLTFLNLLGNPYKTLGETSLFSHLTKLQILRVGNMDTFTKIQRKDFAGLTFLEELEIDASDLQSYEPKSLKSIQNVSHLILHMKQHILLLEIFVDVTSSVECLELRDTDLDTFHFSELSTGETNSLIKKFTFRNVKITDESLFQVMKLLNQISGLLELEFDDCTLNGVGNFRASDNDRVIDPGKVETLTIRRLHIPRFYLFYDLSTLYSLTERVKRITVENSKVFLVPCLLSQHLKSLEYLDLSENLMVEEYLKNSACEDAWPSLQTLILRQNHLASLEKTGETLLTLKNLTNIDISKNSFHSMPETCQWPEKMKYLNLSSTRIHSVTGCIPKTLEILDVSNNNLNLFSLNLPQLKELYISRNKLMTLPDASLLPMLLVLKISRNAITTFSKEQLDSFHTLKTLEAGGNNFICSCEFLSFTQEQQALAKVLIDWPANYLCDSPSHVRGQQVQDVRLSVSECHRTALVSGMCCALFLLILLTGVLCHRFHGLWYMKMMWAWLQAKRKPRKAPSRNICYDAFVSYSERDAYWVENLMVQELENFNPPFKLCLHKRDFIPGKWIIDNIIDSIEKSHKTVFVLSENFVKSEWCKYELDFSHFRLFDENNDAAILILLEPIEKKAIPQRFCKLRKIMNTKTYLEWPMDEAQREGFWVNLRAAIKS
Sequence (Q15399 whole entry): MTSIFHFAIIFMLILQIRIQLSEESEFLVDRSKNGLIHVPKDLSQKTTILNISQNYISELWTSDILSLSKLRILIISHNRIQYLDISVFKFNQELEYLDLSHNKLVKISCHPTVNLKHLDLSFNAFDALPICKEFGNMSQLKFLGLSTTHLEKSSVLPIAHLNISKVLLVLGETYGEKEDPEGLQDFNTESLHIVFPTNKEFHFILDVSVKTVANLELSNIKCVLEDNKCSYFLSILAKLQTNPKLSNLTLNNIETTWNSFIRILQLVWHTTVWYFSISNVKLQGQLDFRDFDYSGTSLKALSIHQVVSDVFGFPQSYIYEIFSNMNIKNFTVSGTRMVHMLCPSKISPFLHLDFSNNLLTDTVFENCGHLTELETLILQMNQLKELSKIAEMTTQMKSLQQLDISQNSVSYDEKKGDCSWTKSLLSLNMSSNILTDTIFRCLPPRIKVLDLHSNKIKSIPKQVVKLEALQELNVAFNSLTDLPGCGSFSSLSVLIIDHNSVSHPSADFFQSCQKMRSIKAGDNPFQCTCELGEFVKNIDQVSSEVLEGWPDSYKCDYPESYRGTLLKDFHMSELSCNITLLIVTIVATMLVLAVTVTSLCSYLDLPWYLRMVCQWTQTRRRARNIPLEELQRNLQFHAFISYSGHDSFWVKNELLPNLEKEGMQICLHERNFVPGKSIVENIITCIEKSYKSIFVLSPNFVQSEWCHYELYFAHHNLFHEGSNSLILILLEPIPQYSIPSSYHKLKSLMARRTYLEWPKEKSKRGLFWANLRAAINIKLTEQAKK
Experiment: Agonist activity at TLR2/TLR1 in human THP-1 cells
Type: cell-based
pEC50: −log10 of the molar value.
Exercise: state measured pEC50 for each of the compounds provided.

Recorded pEC50 of COc1ccc([C@H]2C[C@@H]2NC(=O)[C@@H]2CN(C(=O)c3ccc(C(=O)N4C[C@@H](C(=O)N[C@H]5C[C@@H]5c5ccc(OC)cc5)[C@H](C(=O)N[C@@H]5C[C@H]5c5ccc(OC)cc5)C4)cc3)C[C@H]2C(=O)N[C@H]2C[C@@H]2c2ccc(OC)cc2)cc1 , please.
< 5.30

What about COc1ccc(CCNC(=O)[C@@H]2CN(C(=O)c3ccc(C(=O)N4C[C@@H](C(=O)NCCc5ccc(OC)cc5)[C@H](C(=O)NCCc5ccc(OC)cc5)C4)cc3)C[C@H]2C(=O)NCCc2ccc(OC)cc2)cc1 (racemic) ?
< 5.30

Next compound up: O=C(NCCc1ccc(F)cc1)[C@@H]1CN(C(=O)[C@H]2CC[C@@H](C(=O)N3C[C@@H](C(=O)NCCc4ccc(F)cc4)[C@H](C(=O)NCCc4ccc(F)cc4)C3)CC2)C[C@H]1C(=O)NCCc1ccc(F)cc1
< 5.30

* * *

Give measured EC50 for each item. Keep answers brief.
Biological target: Toll-like receptor 1/2 (Mus musculus)
Assay: Agonist activity at TLR2/TLR1 in mouse Macrophage cell line

Form field: reported EC50 of O=C(NCCc1ccc(F)cc1)[C@@H]1CN(C(=O)[C@@H]2CCC[C@H](C(=O)N3C[C@@H](C(=O)NCCc4ccc(F)cc4)[C@H](C(=O)NCCc4ccc(F)cc4)C3)C2)C[C@H]1C(=O)NCCc1ccc(F)cc1
> 5 µM

Try O=C(NCCc1ccc(F)cc1)[C@@H]1CN(C(=O)c2ccc3cc(C(=O)N4C[C@@H](C(=O)NCCc5ccc(F)cc5)[C@H](C(=O)NCCc5ccc(F)cc5)C4)ccc3c2)C[C@H]1C(=O)NCCc1ccc(F)cc1 next.
> 5 µM

Can you check CCCCCCNC(=O)[C@@H]1CN(C(=O)c2ccc(C(=O)N3C[C@@H](C(=O)N[C@H]4C[C@@H]4c4ccccc4)[C@H](C(=O)N[C@@H]4C[C@H]4c4ccccc4)C3)cc2)C[C@H]1C(=O)N[C@H]1C[C@@H]1c1ccccc1 next?
0.08 µM

Proceed to O=C(N[C@H]1C[C@@H]1c1ccccc1)[C@@H]1CN(C(=O)[C@@H]2CCC[C@H](C(=O)N3C[C@@H](C(=O)N[C@H]4C[C@@H]4c4ccccc4)[C@H](C(=O)N[C@H]4C[C@@H]4c4ccccc4)C3)C2)C[C@H]1C(=O)N[C@H]1C[C@@H]1c1ccccc1
> 5 µM

Follow-up entry: O=C(N[C@H]1C[C@@H]1c1ccccc1)[C@@H]1CN(C(=O)Cc2cnc(CC(=O)N3C[C@@H](C(=O)N[C@H]4C[C@@H]4c4ccccc4)[C@H](C(=O)N[C@H]4C[C@@H]4c4ccccc4)C3)cn2)C[C@H]1C(=O)N[C@H]1C[C@@H]1c1ccccc1
> 5 µM

Can you handle O=C(N[C@H]1C[C@@H]1c1ccccc1)[C@@H]1CN(C(=O)c2ccc(C(=O)N3C[C@@H](C(=O)N[C@H]4C[C@@H]4c4ccccc4)[C@H](C(=O)N[C@H]4C[C@@H]4c4ccccc4)C3)c3ccccc23)C[C@H]1C(=O)N[C@H]1C[C@@H]1c1ccccc1 next?
> 5 µM

Here is the next molecule: O=C(N[C@H]1C[C@@H]1c1ccccc1)[C@@H]1CN(C(=O)/C=C/C(=O)N2C[C@@H](C(=O)N[C@H]3C[C@@H]3c3ccccc3)[C@H](C(=O)N[C@H]3C[C@@H]3c3ccccc3)C2)C[C@H]1C(=O)N[C@H]1C[C@@H]1c1ccccc1
> 5 µM

Next up: O=C(O)[C@@H]1CN(C(=O)c2ccc(C(=O)N3C[C@@H](C(=O)N[C@H]4C[C@@H]4c4ccccc4)[C@H](C(=O)N[C@@H]4C[C@H]4c4ccccc4)C3)cc2)C[C@H]1C(=O)N[C@H]1C[C@@H]1c1ccccc1
> 5 µM

Also CCCCCCCCNC(=O)[C@@H]1CN(C(=O)c2ccc(C(=O)N3C[C@@H](C(=O)NCCCCCCCC)[C@H](C(=O)NCCCCCCCC)C3)cc2)C[C@H]1C(=O)NCCCCCCCC ?
> 0.005 µM

Query O=C(N[C@H]1C[C@@H]1c1ccccc1)[C@@H]1CN(C(=O)c2cccc(C(=O)N3C[C@@H](C(=O)N[C@H]4C[C@@H]4c4ccccc4)[C@H](C(=O)N[C@H]4C[C@@H]4c4ccccc4)C3)c2)C[C@H]1C(=O)N[C@H]1C[C@@H]1c1ccccc1 next
> 5 µM

Try the molecule COc1ccc([C@H]2C[C@@H]2NC(=O)[C@@H]2CN(C(=O)c3ccc(C(=O)N4C[C@@H](C(=O)N[C@H]5C[C@@H]5c5ccc(OC)cc5)[C@H](C(=O)N[C@@H]5C[C@H]5c5ccc(OC)cc5)C4)cc3)C[C@H]2C(=O)N[C@H]2C[C@@H]2c2ccc(OC)cc2)cc1
> 5 µM

Do the same for Cc1ccc([C@H]2C[C@@H]2NC(=O)[C@@H]2CN(C(=O)c3ccc(C(=O)N4C[C@@H](C(=O)N[C@H]5C[C@@H]5c5ccc(C)cc5)[C@H](C(=O)N[C@@H]5C[C@H]5c5ccc(C)cc5)C4)cc3)C[C@H]2C(=O)N[C@H]2C[C@@H]2c2ccc(C)cc2)cc1 please
> 5 µM

# repeat for O=C(O)[C@@H]1CN(C(=O)c2ccc(C(=O)N3C[C@@H](C(=O)O)[C@H](C(=O)N[C@@H]4C[C@H]4c4ccccc4)C3)cc2)C[C@H]1C(=O)N[C@@H]1C[C@H]1c1ccccc1
> 5 µM

Similarly, CCCCCCCCCCNC(=O)[C@@H]1CN(C(=O)c2ccc(C(=O)N3C[C@@H](C(=O)N[C@H]4C[C@@H]4c4ccccc4)[C@H](C(=O)N[C@@H]4C[C@H]4c4ccccc4)C3)cc2)C[C@H]1C(=O)N[C@H]1C[C@@H]1c1ccccc1 ?
0.65 µM

Another molecule: O=C(NCCc1ccc(F)cc1)[C@@H]1CN(C(=O)C#CC(=O)N2C[C@@H](C(=O)NCCc3ccc(F)cc3)[C@H](C(=O)NCCc3ccc(F)cc3)C2)C[C@H]1C(=O)NCCc1ccc(F)cc1
> 5 µM
